experimental-system: A2BR (Homo sapiens, UniProt P29275)
Sequence (P29275 1-332): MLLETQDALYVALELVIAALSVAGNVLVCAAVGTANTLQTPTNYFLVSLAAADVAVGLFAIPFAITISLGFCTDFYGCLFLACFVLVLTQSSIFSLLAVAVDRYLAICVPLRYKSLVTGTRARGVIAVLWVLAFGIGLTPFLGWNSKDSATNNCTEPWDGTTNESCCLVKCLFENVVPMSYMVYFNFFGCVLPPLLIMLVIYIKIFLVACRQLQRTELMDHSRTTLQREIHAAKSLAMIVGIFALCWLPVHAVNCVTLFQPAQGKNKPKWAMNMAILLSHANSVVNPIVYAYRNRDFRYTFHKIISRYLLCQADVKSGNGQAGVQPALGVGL
procedure-details: GloSensor cAMP assay, HEK293
Provide the recorded IC50 for the entries that follow.
Give bare numbers, in nM.

Cc1c(C#N)cccc1-c1cc(-c2cn(Cc3cccc(C(C)(C)O)n3)nn2)nc(N)n1
8.18

Now take the following compound into account.
// fetch IC50; item: Cc1c(C#N)cccc1-c1cc(-c2ccn(Cc3cccc(C(C)(C)O)n3)c(=O)c2)nc(N)n1 ; system: A2BR (Homo sapiens, UniProt P29275)
2630
